These measurements were taken from PubChem BioAssay.

- Test system: TRPC4 beta (transient receptor potential cation channel C4), mouse
- ASSAY_INFO: potentiation of DAMGO EC20 TRPC4 response – cell-based, Fluo-4, HEK293 TRPC4beta/mu-opioid, confirmation (AID 2555)
- ASSAY_CONDITIONS: DAMGO EC20, Fluo-4 calcium flux, at 10 µM
Calls of active or inactive are those of the source.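 How the source made its calls: active means primary screen hit whose calcium fluorescence ratio, in both repeats, exceeds the weak agonist control mean by 3 SD; inactive means the rest.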
Tick one outcome: active, inactive

A selection of reference data follows.
{"COMPOUND": "OCCNc1nc2ccccc2n1CCN1CCCCC1", "ASSAYED_TARGET": "TRPC4 beta (transient receptor potential cation channel C4), mouse", "QUALITATIVE_LABEL": "inactive"}
{"COMPOUND": "CCc1nc2ccccc2n1Cc1ccc(F)cc1", "ASSAYED_TARGET": "TRPC4 beta (transient receptor potential cation channel C4), mouse", "QUALITATIVE_LABEL": "inactive"}

Now look at this entry.
Task: Call for entry Cc1ccc(S(=O)(=O)N2CCC(N3CCN(C)CC3)CC2)cc1Cl :
Result: active
